# Tested on: MDA-MB-435
# Assay Overview: Growth inhibition of human MDA-MB-435 cells assessed as cell growth at 10 uM incubated for 48 hrs by sulforhodamine B assay relative to control
# Assay type: functional
# Applied Conditions: read-out: Activity
Parameter Measured: growth at 10 µM

# Smiles Representation, Value Reported
measured = [
    ("CCOc1ccc(-c2cc(N)n(S(=O)(=O)c3ccc(OC)cc3)n2)cc1", "101%"),
    ("O=S(=O)(c1ccc(Br)cc1)n1ccc(-c2ccc(OCCCF)cc2)n1", "98.2%"),
    ("Cc1cccc(NC(=O)c2sc3nc4c(cc3c2N)CN(Cc2ccccc2)CC4)c1", "94.5%"),
    ("COc1ccc(-c2ccn(S(=O)(=O)c3ccc(C)cc3)n2)cc1", "94.1%"),
    ("CC(=O)Nc1ccc(S(=O)(=O)n2ccc(-c3ccc4c(c3)CCC(C)(C)O4)n2)cc1", "67.3%"),
]

* * *

# System: OVCAR-8
# Assay Overview: Growth inhibition of human OVCAR-8 cells assessed as cell growth at 10 uM incubated for 48 hrs by sulforhodamine B assay relative to control
# Format: functional
# Applied Conditions: read-out: Activity
Rule: growth at 10 µM under 90% gives class 0, otherwise class 1.

# Smiles Representation, Cat
records = [
    ("CC1(C)CCc2cc(-c3ccn(S(=O)(=O)c4ccccc4)n3)ccc2O1", "class 0"),
    ("CCc1ccccc1NC(=O)c1sc2nc3c(cc2c1N)C(=O)CCC3", "class 0"),
    ("Nc1c(C(=O)N(c2ccccc2)c2ccccc2)sc2nc3c(cc12)C(=O)CCC3", "class 1"),
    ("CN1CCc2nc3sc(C(N)=O)c(N)c3c(-c3cccs3)c2C1", "class 0"),
]

* * *

# System: TK-10
# Assay Overview: Growth inhibition of human TK-10 cells assessed as cell growth at 1 uM incubated for 48 hrs by sulforhodamine B assay relative to control
# Assay type: functional
# Applied Conditions: read-out: Activity
Quick reference for growth at 1 µM among some compounds
Parameter Measured: growth at 1 µM (%)

# Smiles Representation, Value Reported
measured = [
    ("Cc1cc(C)c(NC(=O)c2sc3nc4c(cc3c2N)CN(Cc2ccccc2)CC4)c(C)c1", 95),
    ("COc1cccc(NC(=O)c2sc3nc4c(cc3c2N)CN(Cc2ccccc2)CC4)c1", 98),
    ("Nc1c(C(=O)Nc2ccccc2)sc2nc3c(cc12)CN(Cc1ccccc1)CC3", 100),
    ("CN1CCc2nc3sc(C(N)=O)c(N)c3c(-c3cccs3)c2C1", 103),
    ("Cc1cccc(NC(=O)c2sc3nc4c(cc3c2N)C(=O)CCC4)c1", 45),
    ("Cc1ccc(NC(=O)c2sc3nc4c(cc3c2N)C(=O)CCC4)cc1C", 52),
    ("CCc1ccccc1NC(=O)c1sc2nc3c(cc2c1N)C(=O)CCC3", 55),
]

* * *

Quick reference for growth at 10 µM among some compounds
# System: PC-3
# Assay Overview: Growth inhibition of human PC-3 cells assessed as cell growth at 10 uM incubated for 48 hrs by sulforhodamine B assay relative to control
# Assay type: functional
# Applied Conditions: read-out: Activity
Parameter Measured: growth at 10 µM

# Smiles Representation, Parameter Measured, Value Reported
measured = [
    ("CCOc1ccc(-c2cc(N)n(S(=O)(=O)c3ccc(OC)cc3)n2)cc1", "growth at 10 µM", "88.6%"),
    ("COc1ccc(S(=O)(=O)n2ccc(-c3ccc4c(c3)CCC(C)(C)O4)n2)cc1", "growth at 10 µM", "78%"),
    ("CC1(C)CCc2cc(-c3ccn(S(=O)(=O)c4ccccc4)n3)ccc2O1", "growth at 10 µM", "61.8%"),
    ("CC1(C)CCc2cc(-c3ccn(S(=O)(=O)c4ccc(C(C)(C)C)cc4)n3)ccc2O1", "growth at 10 µM", "72.9%"),
    ("COc1ccc(S(=O)(=O)n2ccc(-c3ccc(OC(C)C)cc3)n2)cc1", "growth at 10 µM", "73.2%"),
    ("COc1ccc(S(=O)(=O)n2ccc(-c3ccc4c(c3)CCC(C)(C)O4)n2)cc1OC", "growth at 10 µM", "69.5%"),
    ("CCc1cccc(C)c1NC(=O)c1sc2nc3c(cc2c1N)C(=O)CCC3", "growth at 10 µM", "23.3%"),
    ("COc1ccc(-c2ccn(S(=O)(=O)c3ccc(OC)cc3)n2)cc1", "growth at 10 µM", "65.8%"),
    ("CN1CCc2nc3sc(C(N)=O)c(N)c3c(-c3cccs3)c2C1", "growth at 10 µM", "21%"),
    ("O=S(=O)(c1ccc(Br)cc1)n1ccc(-c2ccc(OCCCF)cc2)n1", "growth at 10 µM", "79.5%"),
]
